Assay: MTS/PMS cell viability assay
Format: cell-based
Details: human, HepG2 hepatocytes, 1 h exposure, read-out: Cytotoxicity HepG2 EC50 ± SD
readout_kind: EC50 at 1 h
Include the unit right after the number.

Item: `C[C@@H](c1ccccc1)N(CCC(N)=O)C(=O)[C@H](CCCCNC(=N)N)NC(=O)CCN(C(=O)[C@H](CCCCN)NC(=O)CCN(C(=O)[C@H](CCCCNC(=N)N)NC(=O)CCN(C(=O)[C@H](CCCCN)NC(=O)CCN(C(=O)[C@H](CCCCNC(=N)N)NC(=O)CCN(C(=O)[C@H](CCCCN)NC(=O)CNCCN)[C@@H](C)c1ccccc1)[C@@H](C)c1ccccc1)[C@@H](C)c1ccccc1)[C@@H](C)c1ccccc1)[C@@H](C)c1ccccc1` | EC50 at 1 h: 85 µM
